Molecular target: BChE (EC 3.1.1.8, equine serum) (Equus caballus, UniProt P81908)
Sequence (P81908 whole entry): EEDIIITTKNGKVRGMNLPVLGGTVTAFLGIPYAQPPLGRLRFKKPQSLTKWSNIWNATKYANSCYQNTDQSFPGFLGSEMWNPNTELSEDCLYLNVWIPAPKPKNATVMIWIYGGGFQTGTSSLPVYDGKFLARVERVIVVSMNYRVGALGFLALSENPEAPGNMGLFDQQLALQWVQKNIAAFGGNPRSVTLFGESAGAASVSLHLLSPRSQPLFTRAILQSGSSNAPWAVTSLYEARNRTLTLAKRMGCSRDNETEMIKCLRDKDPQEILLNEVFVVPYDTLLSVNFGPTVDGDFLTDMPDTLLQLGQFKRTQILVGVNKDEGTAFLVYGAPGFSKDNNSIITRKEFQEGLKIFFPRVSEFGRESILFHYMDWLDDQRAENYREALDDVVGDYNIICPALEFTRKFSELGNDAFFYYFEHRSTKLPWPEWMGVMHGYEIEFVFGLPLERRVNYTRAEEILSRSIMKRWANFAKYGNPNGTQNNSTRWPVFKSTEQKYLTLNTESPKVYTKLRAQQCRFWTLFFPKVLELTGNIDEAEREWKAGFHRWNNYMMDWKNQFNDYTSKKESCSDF
Test: In vitro ChE activity assay (modified Ellman), BChE
Format: biochemical
Conditions: at maximal concentration tested, 10 μM
QUANTITY: inhibition at 10 µM

CNC(=O)Oc1ccccc1/C=C/c1cccs1 [Compound 1]: 84.4%

Batch request: inhibition at 10 µM per item, same order as input.
1. CNC(=O)Oc1ccc(C)cc1/C=C/c1cccs1 [Compound 4]
2. CCN(C)C(=O)Oc1ccccc1/C=C/c1cccs1 [Compound 9]
3. CCN(C)C(=O)Oc1ccc(C)cc1/C=C/c1cccs1 [Compound 11]

A.
1. 85.4%
2. 83.9%
3. 82.8%

---

Test system: LPS-stimulated TNFα production in PBMCs
Assay: LPS-stimulated TNFα production in PBMCs (ELISA)
Format: cell-based
Settings: Homo sapiens, PBMC; PBMCs, reference compound; read-out: IC50, inhibition of LPS-stimulated TNFα production
QUANTITY: pIC50
Answers are plain numbers, as −log10 of the molar value.

Q. Can you look up the measured pIC50 of C[C@@H]1C[C@H]2[C@@H]3CCC4=CC(=O)C=C[C@]4(C)[C@@]3(F)[C@@H](O)C[C@]2(C)[C@@]1(O)C(=O)CO [Dexamethasone, reference compound] for me?
A. 8.46
